- Test name: fluorescence interference in NS3h assay format, artefact control for HCV NS3 helicase inhibitor project, biochemical, NIH Clinical Collection (AID 743272);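 further: HCV NS3 helicase with a Cy5 labelled single stranded DNA probe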
- Details: fluorescence interference counterscreen, hits give low values
Endpoint name: fluorescence ratio
Output: the number by itself.

Lookup: Please look up its fluorescence ratio: "O=C1c2c(O)cc(O)cc2O[C@H](c2ccc(O)c(O)c2)[C@H]1O"
Found: 0.99

Lookup: fluorescence ratio lookup needed for "COc1cc(C)c(/C=C/C(C)=C/C=C/C(C)=C/C(=O)O)c(C)c1C" , thanks.
Found: 1

Lookup: # get_value(readout='fluorescence ratio', item= "COc1nc(C)nc(Cl)c1NC1=NCCN1" )
Found: 1.07

Lookup: I am curious: what fluorescence ratio value has been reported for CCOC(=O)C1(CCCCCCOc2ccc(Cl)cc2)CO1 (stereo not given) ?
Found: 0.93

Lookup: If you can, please state the reported fluorescence ratio value of "Cc1cnc(C(=O)NCCc2ccc(S(=O)(=O)NC(=O)NC3CCCCC3)cc2)cn1" .
Found: 0.98

Lookup: Please give the measured fluorescence ratio for this molecule: "CN(C)CC/C=C1/c2ccccc2COc2ccccc21"
Found: 0.93

Lookup: # query: fluorescence ratio of entry C[C@H]1O[C@H](O[C@H]2[C@H](O)[C@@H](O)[C@@H](O[C@H]3[C@H](O)[C@@H](O)C(O)O[C@@H]3CO)O[C@@H]2CO)[C@H](O)[C@@H](O)[C@@H]1N[C@H]1C=C(CO)[C@@H](O)[C@H](O)[C@H]1O (stereo not given in full)
Found: 1.03

Lookup: Recorded fluorescence ratio for "CN/C(=C\[N+](=O)[O-])NCCSCc1csc(CN(C)C)n1" , please?
Found: 0.97

Lookup: Param item = O=c1[nH]c(=O)n(C2CC(O)C(CO)O2)cc1F (stereo not given) ; retrieve measured fluorescence ratio.
Found: 1.04

Lookup: Reported fluorescence ratio for "CSc1nc2cc(Oc3cccc(Cl)c3Cl)c(Cl)cc2[nH]1" : what is it?
Found: 0.96
